- experiment notes: Lipophilicity, log P of the compound
- Assay type: physicochemical
- reported conditions: octanol/water
endpoint label: logP

molecule=CCC(=O)O[C@@H]1[C@@H]2[C@@H](OC(C)=O)[C@]3(CC[C@H]4[C@@H](/C=C(\C)C(=O)[C@@]2(OC(C)=O)C[C@@H]1C)C4(C)C)CO3 endpoint_label=logP test_value=2.32
molecule=CCCC(=O)O[C@@H]1[C@@H]2[C@@H](OC(=O)CCC)[C@]3(CC[C@H]4[C@@H](/C=C(\C)C(=O)[C@@]2(OC(=O)CCC)C[C@@H]1C)C4(C)C)CO3 endpoint_label=logP test_value=4.3
molecule=C=C1CC[C@H]2[C@@H](/C=C(\C)C(=O)[C@@]3(O)C[C@H](C)[C@H](O)[C@@H]3[C@H]1OC(=O)c1ccccc1)C2(C)C endpoint_label=logP test_value=3.19
molecule=CCCC(=O)O[C@@H]1[C@@H]2[C@@H](OC(C)=O)[C@]3(CC[C@H]4[C@@H](/C=C(\C)C(=O)[C@@]2(OC(C)=O)C[C@@H]1C)C4(C)C)CO3 endpoint_label=logP test_value=2.5
molecule=C=C1CC[C@H]2[C@@H](/C=C(\C)C(=O)[C@@]3(O)C[C@H](C)[C@H](O)[C@@H]3[C@H]1OC(=O)c1cccc(Br)c1)C2(C)C endpoint_label=logP test_value=3.11
molecule=C=C1CC[C@H]2[C@@H](/C=C(\C)C(=O)[C@@]3(O)C[C@H](C)[C@H](O)[C@@H]3[C@H]1OC(=O)c1cccc(OC)c1)C2(C)C endpoint_label=logP test_value=3.42
molecule=COc1ccc(C(=O)O[C@@H]2[C@@H]3[C@@H](OC(=O)c4ccc(OC)cc4)[C@]4(CC[C@H]5[C@@H](/C=C(\C)C(=O)[C@@]3(O)C[C@@H]2C)C5(C)C)CO4)cc1 endpoint_label=logP test_value=4.51
molecule=C/C1=C\[C@@H]2[C@H](CC[C@]3(CO3)[C@H](OC(=O)c3ccccc3)[C@H]3[C@@H](OC(=O)c4ccccc4)[C@@H](C)C[C@]3(O)C1=O)C2(C)C endpoint_label=logP test_value=4.6
molecule=C=C1CC[C@H]2[C@@H](/C=C(\C)C(=O)[C@@]3(OC(C)=O)C[C@H](C)[C@H](OC(C)=O)[C@@H]3[C@H]1OC(C)=O)C2(C)C endpoint_label=logP test_value=3.35
molecule=C/C1=C\[C@@H]2[C@H](CC[C@]3(CO3)[C@H](OC(=O)c3ccc(C)cc3)[C@H]3[C@@H](OC(=O)c4ccc(C)cc4)[C@@H](C)C[C@]3(O)C1=O)C2(C)C endpoint_label=logP test_value=5
molecule="CCCCC(CC)C(=O)O[C@@H]1[C@@H]2[C@@H](OC(=O)C(CC)CCCC)[C@]3(CC[C@H]4[C@@H](/C=C(\\C)C(=O)[C@@]2(O)C[C@@H]1C)C4(C)C)CO3 (some centres undefined)" endpoint_label=logP test_value=6.45
molecule=C=C1CC[C@H]2[C@@H](/C=C(\C)C(=O)[C@@]3(O)C[C@H](C)[C@H](O)[C@@H]3[C@H]1OC(=O)/C=C/c1ccccc1)C2(C)C endpoint_label=logP test_value=3.93
molecule=C=C1CC[C@H]2[C@@H](/C=C(\C)C(=O)[C@@]3(O)C[C@H](C)[C@H](O)[C@@H]3[C@H]1OC(=O)c1ccc(C(F)(F)F)cc1)C2(C)C endpoint_label=logP test_value=4.16
molecule=C/C1=C\[C@@H]2[C@H](CC[C@]3(CO3)[C@H](OC(=O)Cc3ccccc3)[C@H]3[C@@H](OC(=O)Cc4ccccc4)[C@@H](C)C[C@]3(O)C1=O)C2(C)C endpoint_label=logP test_value=4.91
molecule=C/C1=C\[C@@H]2[C@H](CC[C@]3(CO3)[C@H](O)[C@H]3[C@@H](O)[C@@H](C)C[C@]3(O)C1=O)C2(C)C endpoint_label=logP test_value=1.91
molecule=C=C1CC[C@H]2[C@@H](/C=C(\C)C(=O)[C@@]3(O)C[C@H](C)[C@H](O)[C@@H]3[C@H]1O)C2(C)C endpoint_label=logP test_value=1.48
molecule=CC(=O)O[C@@H]1[C@@H]2[C@@H](OC(C)=O)[C@]3(CC[C@H]4[C@@H](/C=C(\C)C(=O)[C@@]2(OC(C)=O)C[C@@H]1C)C4(C)C)CO3 endpoint_label=logP test_value=2.7
molecule=C=C1CC[C@H]2[C@@H](/C=C(\C)C(=O)[C@@]3(O)C[C@H](C)[C@H](O)[C@@H]3[C@H]1OC(=O)c1cccc(C(F)(F)F)c1)C2(C)C endpoint_label=logP test_value=3.41
molecule=C/C1=C\[C@@H]2[C@H](CC[C@]3(CO3)[C@H](OC(=O)c3ccccc3)[C@H]3[C@@H](OC(=O)c4ccccc4)[C@@H](C)C[C@]3(OC(=O)c3ccccc3)C1=O)C2(C)C endpoint_label=logP test_value=5.99
